From: patent US20120135923A1

Target: hMC4-R (Homo sapiens)
Construct: expressed in transfected cells; host or cells: CHO-K1
Sequence (P32245 whole entry): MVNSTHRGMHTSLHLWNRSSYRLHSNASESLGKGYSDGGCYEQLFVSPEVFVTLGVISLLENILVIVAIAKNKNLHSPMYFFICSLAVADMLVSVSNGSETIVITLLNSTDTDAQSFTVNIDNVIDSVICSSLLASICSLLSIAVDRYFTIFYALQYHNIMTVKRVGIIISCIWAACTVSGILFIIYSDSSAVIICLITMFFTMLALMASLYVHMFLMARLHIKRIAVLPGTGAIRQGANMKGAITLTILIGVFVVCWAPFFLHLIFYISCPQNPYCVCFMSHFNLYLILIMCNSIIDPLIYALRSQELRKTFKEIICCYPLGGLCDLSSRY
Experiment: cyclic AMP bioassay (ECL) in CHO-K1 cells
Format: cell-based
Details: Table 9A/9B; read-out: EC50 hMC4-R
Bridge positions count the residues as written; N and C are the ends. Square brackets hold non-standard residues; d marks the D form. Peptide text beside a SMILES is read from it. Bip = N[C@@H](Cc1ccc(-c2ccccc2)cc1)C(=O)O; hArg = N=C(N)NCCCC[C@H](N)C(=O)O; Pen = CC(C)(S)[C@H](N)C(=O)O; Nle = CCCC[C@H](N)C(=O)O; Ava = NCCCCC(=O)O; GABA = NCCCC(=O)O; βAla = NCCC(=O)O
// assign T if EC50 falls strictly below 60 pM, else F (ties count as F)

CC(=O)N[C@@H](CCCNC(=N)N)C(=O)N[C@H]1CC(=O)NCCCC[C@@H](C(N)=O)NC(=O)[C@H](C)NC(=O)[C@H](Cc2c[nH]c3ccccc23)NC(=O)[C@H](CCCNC(=N)N)NC(=O)[C@@H](Cc2ccccc2)NC(=O)[C@H](Cc2c[nH]cn2)NC1=O | T

I'd appreciate it if you could check whether CC(=O)N[C@@H](CC1CCCCC1)C(=O)N[C@H]1CC(=O)NCCCC[C@@H](C(N)=O)NC(=O)CCCNC(=O)[C@H](Cc2c[nH]c3ccccc23)NC(=O)[C@H](CCCNC(=N)N)NC(=O)[C@@H](Cc2ccccc2)NC(=O)[C@H](Cc2c[nH]cn2)NC1=O has EC50 smaller than 60 pM.
F

Report whether reported EC50 is lower than 60 pM (strictly) for CCOc1ccc(C[C@H]2NC(=O)[C@H](Cc3c[nH]cn3)NC(=O)[C@@H](NC(=O)[C@H](N)Cc3ccccc3)CSSC[C@H](C(=O)N[C@H](C(N)=O)[C@@H](C)O)NC(=O)CCNC(=O)[C@H](Cc3c[nH]c4ccccc34)NC(=O)[C@H](CCCCNC(=N)N)NC2=O)cc1 (H-[dF]CH[dY](Et)[hArg]W[βAla][dC]T-NH2; disulfide 2-8)
F

Take the compound CCOc1ccc(C[C@H]2NC(=O)[C@H](Cc3c[nH]cn3)NC(=O)[C@@H](NC(=O)[C@H](N)Cc3ccccc3)CSSC[C@H](C(=O)N[C@H](C(N)=O)[C@@H](C)O)NC(=O)CCNC(=O)[C@H](Cc3ccc(-c4ccccc4)cc3)NC(=O)[C@H](CCCCNC(=N)N)NC2=O)cc1 (H-[dF]CH[dY](Et)[hArg][Bip][βAla][dC]T-NH2; disulfide 2-8) and say whether its EC50 is less than 60 pM.
F

Consider CCCC[C@H](NC(C)=O)C(=O)N[C@H]1CSSC(C)(C)[C@@H](C(N)=O)NC(=O)CCCNC(=O)[C@H](Cc2c[nH]c3ccccc23)NC(=O)[C@H](CCCNC(=N)N)NC(=O)[C@@H](Cc2ccccc2)NC(=O)[C@H](Cc2c[nH]cn2)NC1=O (Ac-[Nle]CH[dF]RW[GABA][Pen]-NH2; disulfide 2-8) . Does its EC50 lie strictly below 60 pM?
T

Could you please tell me whether EC50 recorded for CC(=O)N[C@H](CCCNC(=N)N)C(=O)N[C@H]1CSSC(C)(C)[C@@H](C(N)=O)NC(=O)CCCNC(=O)[C@H](Cc2c[nH]c3ccccc23)NC(=O)[C@H](CCCNC(=N)N)NC(=O)[C@@H](Cc2ccccc2)NC(=O)[C@H](Cc2c[nH]cn2)NC1=O (Ac-[dR]CH[dF]RW[GABA][Pen]-NH2; disulfide 2-8 (inferred)) is less than 60 pM?
F

EC50 strictly < 60 pM for this compound? CCCC[C@H](N)C(=O)N[C@H]1CSSC[C@@H](C(N)=O)NC(=O)CCCCNC(=O)[C@H](Cc2c[nH]c3ccccc23)NC(=O)[C@H](CCCNC(=N)N)NC(=O)[C@@H](Cc2ccccc2)NC(=O)[C@H](Cc2c[nH]cn2)NC1=O [Nle-c(Cys-His-D-Phe-Arg-Trp-Apn-Cys)-NH2] (H-[Nle]CH[dF]RW[Ava]C-NH2; disulfide 2-8)
T
